Data provenance is patent US9517989B2.

CB2 receptor (UniProt P47936) pKi data
pKi here: minus log base 10 of the concentration, concentration in moles per litre.

// below: answered compounds
CCCC/C=C\C1(c2cc(O)c([C@H]3C=C(C)[C@H]4C[C@@H]3C4(C)C)c(O)c2)CCCC1 :: 8.18
C=C(C)[C@@H]1CC[C@@H](CO)C[C@H]1c1c(O)cc(C23CC4CC(CC(C4)C2)C3)cc1O :: 7.80
CCCCCCC1(c2cc(O)c([C@H]3C=C(C)[C@H]4C[C@@H]3C4(C)C)c(O)c2)SCCS1 :: 8.10
C=C(C)[C@H]1CCC(COC(C)=O)=C[C@@H]1c1c(O)cc(C2(CCCCCC#N)CCC2)cc1O :: 7.82
C=C(C)[C@H]1CCC(COC(C)=O)=C[C@@H]1c1c(O)cc(C(C)(C)CCCBr)cc1O :: 7.85

Form field: reported pKi of `C=C(C)[C@H]1CCC(COC(C)=O)=C[C@@H]1c1c(O)cc(C23CC4CC(CC(C4)C2)C3)cc1O`
6.87

Please answer likewise for `C=C(C)[C@H]1CCC(COC(C)=O)=C[C@@H]1c1c(O)cc(C2(CCCCCC)CC2)cc1O`
6.98

Please answer likewise for `CCCCCCC1(c2cc(O)c([C@H]3C=C(C)[C@H]4C[C@@H]3C4(C)C)c(O)c2)CCCC1`
7.77

Please answer likewise for `C=C(C)[C@@H]1CC[C@@H](N2CCOCC2)C[C@H]1c1c(O)cc(C(C)(C)CCCCCC)cc1O`
7.85

Please answer likewise for `C=C(C)[C@H]1CCC(COC(C)=O)=C[C@@H]1c1c(O)cc(C2(CCCCCC)CCCC2)cc1O`
7.19

Please answer likewise for `C=C(C)[C@H]1CCC(COC(C)=O)=C[C@@H]1c1c(O)cc(C2(CCCCCC)SCCS2)cc1O`
7.01
